experiment: Degradation of peptide in 10% fresh mouse serum (HPLC of remaining peptide); settings: mouse, 10% fresh mouse serum
Where no end group is shown, it is not given here.

{"item-sequence": "PSISQAVHAAHAEINEA [POVII]", "remaining at 16 h": "~70%"}
